Numbers sourced from PubChem BioAssay AID2060892.

Give viability, T/C for every item shown.
- Test system: HOP-62 complex spheroids with HUVEC/MSC, viability
- EXPERIMENTAL_DETAILS: Anticancer human tumor HOP-62 cell line growth inhibition [RAS];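 further: spheroids exposed to agents for seven days before readout; 100% = DMSO vehicle control viability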
- CONDITION_NOTES: second compound 0.003 µM; first compound 0.0316 µM; hits give low values
- Excerpt: RAS pathway inhibitors in Combinations in Complex Spheroids A high-throughput screen of multi-cell type tumor spheroids was designed to identify active combinations of RAS pathway inhibitors and targeted small molecules. Complex spheroids include a stromal component modeled by human endothelial cells (HUVEC) and fibroblasts modeled by human mesenchymal stem cells (MSCs). […] Compounds. […] If the clinical Cmax for an agent had not been determined, the highest concentration tested was 10 microM. […]
One number for each entry, in %.

Recorded viability, T/C, per entry:
NC1c2ccccc2OC12CCN(c1cnc3c(N4CCCc5ncccc54)n[nH]c3n1)CC2 (stereo not given) + CCn1c(-c2cccnc2C(C)OC)c2c3cc(ccc31)N1CCOC(CC(NC(=O)C(C(C)C)N(C)C(=O)C3(F)CCN(C(=O)C#CC(C)(C)N(C)C)CC3)C(=O)N3CCCC(N3)C(=O)OCC(C)(C)C2)C1 :: 69.4
O=C(c1ccc(F)c(F)c1Nc1ccc(I)cc1F)N1CC(O)([C@@H]2CCCCN2)C1 + CCn1c(-c2cc(N3CCN(C)CC3)cnc2C(C)OC)c2c3cc(ccc31)-c1csc(n1)CC(NC(=O)C1CC1C)C(=O)N1CCCC(N1)C(=O)OCC(C)(C)C2 :: 56.9
C=CC(=O)N1CCN(c2nc(OCC3CCCN3C)nc3c(F)c(-c4nc(N)cc(C)c4C(F)(F)F)c(Cl)cc23)C(C)C1 (stereo not given) + CCn1c(-c2cc(N3CCN(C)CC3)cnc2C(C)OC)c2c3cc(ccc31)-c1csc(n1)CC(NC(=O)C1CC1C)C(=O)N1CCCC(N1)C(=O)OCC(C)(C)C2 :: 69.2

Quick batch: viability, T/C for everything below.
1. CC1(O)CCCC1n1c(=O)c(C(F)F)cc2cnc(NC3CCN(S(C)(=O)=O)CC3)nc21 (stereo not given) + CCn1c(-c2cccnc2C(C)OC)c2c3cc(ccc31)N1CCOC(CC(NC(=O)C(C(C)C)N(C)C(=O)C3(F)CCN(C(=O)C#CC(C)(C)N(C)C)CC3)C(=O)N3CCCC(N3)C(=O)OCC(C)(C)C2)C1
2. CCN1CCN(Cc2ccc(Nc3ncc(F)c(-c4cc(F)c5nc(C)n(C(C)C)c5c4)n3)nc2)CC1 + CCn1c(-c2cccnc2C(C)OC)c2c3cc(ccc31)N1CCOC(CC(NC(=O)C(C(C)C)N(C)C(=O)C3(F)CCN(C(=O)C#CC(C)(C)N(C)C)CC3)C(=O)N3CCCC(N3)C(=O)OCC(C)(C)C2)C1
3. C=CC(=O)Nc1cc(Nc2nccc(-c3cn(C)c4ccccc34)n2)c(OC)cc1N(C)CCN(C)C + CCn1c(-c2cccnc2C(C)OC)c2c3cc(ccc31)N1CCOC(CC(NC(=O)C(C(C)C)N(C)C(=O)C3(F)CCN(C(=O)C#CC(C)(C)N(C)C)CC3)C(=O)N3CCCC(N3)C(=O)OCC(C)(C)C2)C1
4. CCC(CC)c1cc(NC2CCC(N)C2)n2nccc2n1 (stereo not given) + CCn1c(-c2cc(N3CCN(C)CC3)cnc2C(C)OC)c2c3cc(ccc31)-c1csc(n1)CC(NC(=O)C1CC1C)C(=O)N1CCCC(N1)C(=O)OCC(C)(C)C2
5. CC(C)n1nc(-c2ccc3oc(N)nc3c2)c2c(N)ncnc21 + CCn1c(-c2cc(N3CCN(C)CC3)cnc2C(C)OC)c2c3cc(ccc31)-c1csc(n1)CC(NC(=O)C1CC1C)C(=O)N1CCCC(N1)C(=O)OCC(C)(C)C2
6. C=CC(=O)Nc1cc(Nc2nccc(-c3cn(C)c4ccccc34)n2)c(OC)cc1N(C)CCN(C)C + CCn1c(-c2cc(N3CCN(C)CC3)cnc2C(C)OC)c2c3cc(ccc31)-c1csc(n1)CC(NC(=O)C1CC1C)C(=O)N1CCCC(N1)C(=O)OCC(C)(C)C2

[reply]
1. 94.1
2. 68.9
3. 94.1
4. 91.4
5. 44.9
6. 74.4

Quick batch: viability, T/C for everything below.
1. Cc1nc(N2CCC3(CC2)COC(C)C3N)c(CO)nc1Sc1ccnc(N)c1Cl (stereo not given) + CCn1c(-c2cccnc2C(C)OC)c2c3cc(ccc31)N1CCOC(CC(NC(=O)C(C(C)C)N(C)C(=O)C3(F)CCN(C(=O)C#CC(C)(C)N(C)C)CC3)C(=O)N3CCCC(N3)C(=O)OCC(C)(C)C2)C1
2. CC(=O)OC12COC1CC(O)C1(C)C(=O)C(O)C3=C(C)C(OC(=O)C(O)C(NC(=O)OC(C)(C)C)c4ccccc4)CC(O)(C(OC(=O)c4ccccc4)C21)C3(C)C (stereo not given) + CCn1c(-c2cccnc2C(C)OC)c2c3cc(ccc31)N1CCOC(CC(NC(=O)C(C(C)C)N(C)C(=O)C3(F)CCN(C(=O)C#CC(C)(C)N(C)C)CC3)C(=O)N3CCCC(N3)C(=O)OCC(C)(C)C2)C1
3. CC(C)NCC(C(=O)N1CCN(c2ncnc3c2C(C)CC3O)CC1)c1ccc(Cl)cc1 (stereo not given) + CCn1c(-c2cc(N3CCN(C)CC3)cnc2C(C)OC)c2c3cc(ccc31)-c1csc(n1)CC(NC(=O)C1CC1C)C(=O)N1CCCC(N1)C(=O)OCC(C)(C)C2
4. CCC(CC)c1cc(NC2CCC(N)C2)n2nccc2n1 (stereo not given) + CCn1c(-c2cccnc2C(C)OC)c2c3cc(ccc31)N1CCOC(CC(NC(=O)C(C(C)C)N(C)C(=O)C3(F)CCN(C(=O)C#CC(C)(C)N(C)C)CC3)C(=O)N3CCCC(N3)C(=O)OCC(C)(C)C2)C1

[reply]
[107, 32.6, 100, 116]

Quick batch: viability, T/C for everything below.
1. CC(C)n1nc(-c2ccc3oc(N)nc3c2)c2c(N)ncnc21 + CCn1c(-c2cccnc2C(C)OC)c2c3cc(ccc31)N1CCOC(CC(NC(=O)C(C(C)C)N(C)C(=O)C3(F)CCN(C(=O)C#CC(C)(C)N(C)C)CC3)C(=O)N3CCCC(N3)C(=O)OCC(C)(C)C2)C1
2. C[C@@H](NC(=O)c1ncnc(N)c1Cl)c1ncc(C(=O)Nc2cc(C(F)(F)F)c(Cl)cn2)s1 + CCn1c(-c2cc(N3CCN(C)CC3)cnc2C(C)OC)c2c3cc(ccc31)-c1csc(n1)CC(NC(=O)C1CC1C)C(=O)N1CCCC(N1)C(=O)OCC(C)(C)C2

[reply]
1. 45.7
2. 107
